// provenance: the nanobody polyreactivity screen of Harvey et al. (2022)

assay: yeast display, Sf9 membrane polyspecificity reagent, FACS + sequencing; frameworks hold sequencing errors
propertyName: polyreactivity (PSR sort gate)

INSERT INTO results (residuesequence, reportedvalue) VALUES
  ('QVQLVESGGGLVQAGGSLRLSCAASGRIFIGYAMGWYRQAPGKERELVAGISQRGGRTYYADSVKGRFTISRDNAKNTVYLQMNSLKPEDTAVYYCNKRFSLGYRGGYWGQGTQVTVSS', 'high polyreactivity'),
  ('QVQLVESGGGLVQAGGSLRLSCAASGSTLRYYAMGWYRQAPGKEREMVADITSSGNTNYADSVKGRFTISRDNAKNTVYLQMNSLKPEDTAVYYCAGDSANYQWYLSWQKDDYWGQGTQVTVSS', 'low polyreactivity'),
  ('QVQLVESGGGLVQAGGSLRLSCAASGSIFDWYAMGWYRQAPGKERELVAAIDSSGSSTYYADSVKGRFTISRDNAKNTVYLQMNSLKPEDTAVYYCAADSDWIRYWFGSLYGSDYWGQGTQVTVSS', 'low polyreactivity'),
  ('QVQLVESGGGLVQAGGSLRLSCAASGRTFYYYAMGWYRQAPGKERELVAAISWTGGNTYYADSVKGRFTISRDNAKNTVYLQMNSLKPEDTAVYYCAKQTRGYVRGPMYYWGQGTQVTVSS', 'high polyreactivity'),
  ('QVQLVESGGGLVQAGGSLRLSCAASGSIFKYYTMGWYRQAPGKERELVASINGGGSTNYADSVKGRFTISRDNAKNTVYLQMNSLKPEDTAVYYCNARYWWQDGYWGQGTQVTVSS', 'high polyreactivity'),
  ('QVQLVESGGGLVQAGGSLRLSCAASGSTFGVNAMGWYRQAPGKERELVAAITRRGSSTYYADSVKGRFTNSRDNAKNTVYLQMNSLKPEDTAVYFCAADLHYRPGFRYGYWGQGTQVTVSS', 'high polyreactivity'),
  ('QVQLVESGGGLVQAGGSLRLSCAASGYIIYVYAMGWYRQAPGKERELVADISLNGGSTYYADSVKGRFTISRDNAKNTVYLEMNSLKPEDTAVYYCAADGWLYRTYWYYYWGQGTQVTVSS', 'high polyreactivity'),
  ('QVQLEESGGGLVQAGGSLRLSCAASGFIFDYYMGWYIQAPGKERELVARISYTGGSTYYADCVKGRFTISRDNAKNTVYLQMNSLKPEDTAVYYCATRGAEAERFASYDFDYWGQGTQVTVSS', 'low polyreactivity'),
  ('QVQLVESGGGLVQAGGSLRLSCAASGRIFPYYDMGWYRQAPGKERELVAAITSSGSTFYADSVKGRFTISRDNAKNTVYLQMNSLKPEDTAVYYCNTRDIRVRPYDYWGQGTQVTVSS', 'low polyreactivity'),
  ('QVQLVESGGGLVQAGGSLRLSCAASGRIFRLYVMGWYRQAPGKERELVARIRIRDSNTYYADSVKGRFTISRDNAKHTVYLQMNSLKPEDTAVYYCAVVATYVYSKYDYWGQGTQVTVSS', 'low polyreactivity'),
  ('QVQLVESGGGLLQAGGSLRLSCAASGFTIKYYAMGWYRPAPGKERELVAAIRGSGAGTYYADSVKGRFTISRDNAKNTVYLQMNSLKPEDTAVYYCNKRWTYQWDDYWGQGTQVTVSS', 'high polyreactivity');
